- target or system: human recombinant mGluR5 receptor (Homo sapiens, UniProt P41594)
- Construct: expressed in transfected cells; expression induced with doxycycline
- Sequence (P41594 21-1212): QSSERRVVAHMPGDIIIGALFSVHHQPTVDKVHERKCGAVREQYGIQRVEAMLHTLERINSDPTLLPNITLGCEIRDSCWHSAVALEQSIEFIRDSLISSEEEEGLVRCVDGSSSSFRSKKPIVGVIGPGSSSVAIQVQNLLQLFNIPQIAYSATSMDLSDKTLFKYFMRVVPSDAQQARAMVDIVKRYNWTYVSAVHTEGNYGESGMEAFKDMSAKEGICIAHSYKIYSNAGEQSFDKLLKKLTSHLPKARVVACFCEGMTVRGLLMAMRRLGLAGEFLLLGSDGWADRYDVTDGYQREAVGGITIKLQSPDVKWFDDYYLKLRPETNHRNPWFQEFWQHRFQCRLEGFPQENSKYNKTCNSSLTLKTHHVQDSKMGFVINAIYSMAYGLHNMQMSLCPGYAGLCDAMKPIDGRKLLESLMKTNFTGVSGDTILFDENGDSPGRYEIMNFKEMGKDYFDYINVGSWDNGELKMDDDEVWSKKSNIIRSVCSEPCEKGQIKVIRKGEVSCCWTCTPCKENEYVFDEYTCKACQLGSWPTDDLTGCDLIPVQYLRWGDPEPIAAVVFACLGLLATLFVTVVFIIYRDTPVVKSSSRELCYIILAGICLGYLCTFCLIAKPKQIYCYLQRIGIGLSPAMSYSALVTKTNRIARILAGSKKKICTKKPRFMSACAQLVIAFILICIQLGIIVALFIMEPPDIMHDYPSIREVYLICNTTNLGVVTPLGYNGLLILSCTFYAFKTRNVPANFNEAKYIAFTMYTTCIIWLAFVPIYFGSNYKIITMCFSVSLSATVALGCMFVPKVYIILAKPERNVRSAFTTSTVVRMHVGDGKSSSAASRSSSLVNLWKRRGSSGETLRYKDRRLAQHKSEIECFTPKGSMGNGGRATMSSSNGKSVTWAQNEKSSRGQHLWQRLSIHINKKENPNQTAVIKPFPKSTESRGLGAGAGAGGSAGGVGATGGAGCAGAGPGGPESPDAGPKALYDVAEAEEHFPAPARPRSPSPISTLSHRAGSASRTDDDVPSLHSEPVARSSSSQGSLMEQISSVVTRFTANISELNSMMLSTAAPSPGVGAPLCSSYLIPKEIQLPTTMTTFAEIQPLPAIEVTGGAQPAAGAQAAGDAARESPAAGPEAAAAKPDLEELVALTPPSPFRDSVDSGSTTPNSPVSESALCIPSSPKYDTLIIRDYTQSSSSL
- method: mGluR5 in vitro functional assay (aequorin cell line, inhibition of glutamate EC80 response)
- Type: cell-based
- test settings: Table 2; aequorin cell line expressing human mGluR5, reference agonist glutamate at EC80; obtained in duplicate; read-out: IC50
pIC50: −log10 of the molar value.
reported metric: pIC50

For every item in the list below, what is its measured pIC50?
1. Cc1nc(-c2nc3c(o2)CCN(c2ccccn2)C3)cs1
2. COc1cc(C#N)cc(N2CCCc3oc(-c4ccccn4)nc3C2)c1
3. Fc1cc(Cl)cc(N2CCCc3oc(-c4ccccn4)nc3C2)c1
4. Clc1ccccc1[C@H]1CCc2oc(-c3ccccn3)nc2C1 (single isomer, unassigned)

A)
["> 6.00", "> 6.00", "> 6.00", "> 6.00"]

For every item in the list below, what is its measured pIC50?
1. Fc1ccccc1N1CCc2oc(-c3ccccn3)nc2C1
2. N#Cc1ccccc1N1CCc2oc(-c3ccccn3)nc2C1
3. Fc1cccc(N2CCc3oc(-c4ccccn4)nc3C2)c1
4. COc1cccc(N2CCc3oc(-c4ccccn4)nc3C2)c1
5. Clc1cnccc1N1CCc2oc(-c3ccccn3)nc2C1

A)
1. > 6.00
2. > 6.00
3. > 6.00
4. > 6.00
5. > 5.00

====

- target or system: human recombinant mGluR5 receptor (Homo sapiens, UniProt P41594)
- Construct: expressed in transfected cells; expression induced with doxycycline
- method: mGluR5 in vitro functional assay (aequorin cell line, inhibition of glutamate EC80 response)
- Type: cell-based
- test settings: Table 1; aequorin cell line expressing human mGluR5, reference agonist glutamate at EC80; obtained in duplicate; read-out: IC50
pIC50: −log10 of the molar value.
Kindly supply the reported pIC50 values for the records listed here.

INSERT INTO results (compound, assay_value) VALUES
  ('N#Cc1cccnc1N1CCn2cc(-c3cccc(Cl)c3)nc2C1 [Compound 108]', '> 5.00'),
  ('Cc1ccnc(-c2nc3c(o2)CN(c2cccc(C#N)c2)CC3)c1 [Compound 76]', '> 5.00'),
  ('COc1ccc(-c2nc3c(o2)CCN(c2ncccc2C#N)C3)cc1 [Compound 43]', '< 5.00'),
  ('N#Cc1cncc(N2CCc3nc(-c4ccccn4)oc3C2)c1 [Compound 8]', '> 5.00');

Now examine the next entry.
Q) Recorded pIC50 of COc1cccc(N2CCCc3oc(-c4ccccn4)nc3C2)n1 [Compound 103] , please.
A) > 6.00

====

Kindly supply the reported IC50 values for the records listed here.
- target or system: human recombinant mGluR5 receptor (Homo sapiens, UniProt P41594)
- Construct: expressed in transfected cells; expression induced with doxycycline
- method: mGluR5 in vitro functional assay (aequorin cell line, inhibition of glutamate EC80 response)
- Format: cell-based
- test settings: Table 1; aequorin cell line expressing human mGluR5, reference agonist glutamate at EC80; obtained in duplicate; read-out: IC50
- Protocol: B. mGluR5 In Vitro Functional Assay The functional assay utilized an aequorin cell line expressing human recombinant mGluR5 receptor, an inducible cell line that expresses the human receptor under the control of a promoter induced by doxycycline. mGluR5 cells in mid-log phase, grown 18 hours prior to the test in antibiotic-free media supplemented with doxycycline (600 ng/mL), were detached by gentle flushing with PBS-EDTA (5 nM EDTA). […]

INSERT INTO results (compound, target_or_system, assay_value) VALUES
  ('c1ccc(-c2nc3c(o2)CN(c2ccccn2)CC3)nc1 [Compound 2]', 'human recombinant mGluR5 receptor (Homo sapiens, UniProt P41594)', '< 10000 nM'),
  ('Clc1cccc(-c2nc3c(o2)CCN(c2ccccn2)C3)c1 [Compound 40]', 'human recombinant mGluR5 receptor (Homo sapiens, UniProt P41594)', '< 1000 nM'),
  ('N#Cc1cccnc1N1CCc2nc(-c3ccccc3)oc2C1 [Compound 19]', 'human recombinant mGluR5 receptor (Homo sapiens, UniProt P41594)', '< 10000 nM'),
  ('c1ccc(-c2nc3c(o2)CCN(c2nccs2)C3)nc1 [Compound 55]', 'human recombinant mGluR5 receptor (Homo sapiens, UniProt P41594)', '< 1000 nM'),
  ('N#Cc1cc(F)cc(N2CCc3oc(-c4ccccn4)nc3C2)c1 [Compound 30]', 'human recombinant mGluR5 receptor (Homo sapiens, UniProt P41594)', '< 1000 nM');

For every item in the list below, what is its measured IC50?
1. N#Cc1cccc(-c2nc3c(o2)CN(c2ccccn2)CC3)c1 [Compound 65]
2. Fc1cc(F)cc(N2CCc3nc(-c4ccccn4)oc3C2)c1 [Compound 17]
3. N#Cc1cccc(N2CCc3oc(-c4ccncc4)nc3C2)c1 [Compound 78]
4. N#Cc1cccc(-c2nc3c(o2)CN(c2ncccc2C#N)CC3)c1 [Compound 66]

A)
1: > 10000 nM; 2: < 1000 nM; 3: > 10000 nM; 4: < 10000 nM

====

Kindly supply the reported pIC50 values for the records listed here.
- target or system: human recombinant mGluR5 receptor (Homo sapiens, UniProt P41594)
- Construct: expressed in transfected cells; expression induced with doxycycline
- method: mGluR5 in vitro functional assay (aequorin cell line, inhibition of glutamate EC80 response)
- Assay type: cell-based
- test settings: Table 2; aequorin cell line expressing human mGluR5, reference agonist glutamate at EC80; obtained in duplicate; read-out: IC50
pIC50: −log10 of the molar value.

Worked set:
INSERT INTO measurements (molecule, assay_value) VALUES
  ('FC(F)(F)c1ccccc1N1CCc2oc(-c3ccccn3)nc2C1 [Compound 182]', '> 6.00'),
  ('Fc1cc(F)c(F)c(N2CCc3oc(-c4ccccn4)nc3C2)c1 [Compound 188]', '> 6.00'),
  ('Fc1ccc(C2CCc3oc(-c4ccccn4)nc3C2)c(Cl)c1 (racemic) [Compound 223]', '> 6.00'),
  ('N#Cc1cc(N2CCCc3oc(-c4ccccn4)nc3C2)cc(F)c1F [Compound 216]', '> 6.00'),
  ('c1ccc(-c2nc3c(o2)CCN(c2ncccn2)C3)nc1 [Compound 132]', '> 5.00');

For every item in the list below, what is its measured pIC50?
1. N#Cc1cc(F)cc(N2CCCc3oc(-c4cncnc4)nc3C2)c1 [Compound 206]
2. CC1(C)CN(c2ccc(F)cc2Cl)Cc2nc(-c3ccccn3)oc21 [Compound 196]
3. N#Cc1cc(F)cc(N2CCc3oc(-c4ccncn4)nc3C2)c1 [Compound 118]

A)
["< 5.00", "< 5.00", "> 6.00"]

Q) Recorded pIC50 of c1ccc(N2CCc3oc(-c4ccccn4)nc3C2)cc1 [Compound 126] , please.
A) > 6.00

====

- target or system: human recombinant mGluR5 receptor (Homo sapiens, UniProt P41594)
- Construct: expressed in transfected cells; expression induced with doxycycline
- method: mGluR5 in vitro functional assay (aequorin cell line, inhibition of glutamate EC80 response)
- Assay type: cell-based
- test settings: Table 2; aequorin cell line expressing human mGluR5, reference agonist glutamate at EC80; obtained in duplicate; read-out: IC50
pIC50: −log10 of the molar value.
reported metric: pIC50

INSERT INTO results (molecule, target_or_system, reported_metric, assay_value) VALUES
  ('Cc1nc(N2CCCc3oc(-c4ccccn4)nc3C2)cs1 [Compound 208]', 'human recombinant mGluR5 receptor (Homo sapiens, UniProt P41594)', 'pIC50', '< 5.00'),
  ('COc1ccccc1N1CCc2oc(-c3ccccn3)nc2C1 [Compound 177]', 'human recombinant mGluR5 receptor (Homo sapiens, UniProt P41594)', 'pIC50', '> 6.00'),
  ('Fc1ccc(-c2nc3c(o2)CCN(c2cccc(Cl)c2)C3)nc1 [Compound 125]', 'human recombinant mGluR5 receptor (Homo sapiens, UniProt P41594)', 'pIC50', '> 6.00'),
  ('Fc1ccc(F)c(N2CCc3oc(-c4ccccn4)nc3C2)c1 [Compound 169]', 'human recombinant mGluR5 receptor (Homo sapiens, UniProt P41594)', 'pIC50', '> 6.00');

For every item in the list below, what is its measured pIC50?
1. c1ccc(-c2nc3c(o2)CCN(c2cccc4ccccc24)C3)nc1 [Compound 181]
2. COC(=O)N1CCc2oc(-c3ccccn3)nc2C1 [Compound 151]
3. Clc1cccc(N2CCc3oc(-c4ccccn4)nc3C2)c1 [Compound 115]
4. CC1CCN(c2cc(F)cc(C#N)c2)Cc2nc(-c3ccccn3)oc21 (centres unmarked) [Compound 215]
5. Clc1ccccc1C1CCc2oc(-c3ccccn3)nc2C1 (racemic) [Compound 219]
6. N#Cc1cccc(N2CCc3nc(-c4ccccc4)oc3C2)c1 [Compound 148]
7. O=C(CN1CCc2oc(-c3cccc(Cl)c3)nc2C1)c1ccc(F)cc1 [Compound 190]
8. Fc1cccc(N2CCCc3oc(-c4ccncn4)nc3C2)c1 [Compound 136]

A)
> 6.00
< 5.00
> 6.00
> 6.00
> 6.00
> 5.00
> 5.00
> 6.00

For every item in the list below, what is its measured pIC50?
1. CC(C)(c1ccccn1)c1nc2c(o1)CCN(c1cc(F)cc(C#N)c1)C2 [Compound 195]
2. Clc1ccc(N2CCc3oc(-c4ccccn4)nc3C2)cc1 [Compound 157]
3. N#Cc1c(F)cccc1N1CCc2oc(-c3ccccn3)nc2C1 [Compound 189]
4. Fc1cc(Cl)cc(N2CCCc3oc(-c4ncccn4)nc3C2)c1 [Compound 202]

A)
< 5.00
> 6.00
> 6.00
> 6.00
